Provide the reported abundance fitness of each item.
B1: SH3 and PX domain-containing protein 2B, residues 155 to 209; numbered along this chain, A1X283 (parent)
chain: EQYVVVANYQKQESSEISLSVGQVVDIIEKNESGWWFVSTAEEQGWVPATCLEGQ

variants of: B1; experiment: abundance fitness (aPCA) (normalised: wild type 0, dead -1); higher = more abundant; growth selection in yeast, the domain comes from the species named; settings: Homo sapiens

QUERY: Item under review: "Q2I" . Reported abundance fitness?
RESULT: -0.347

QUERY: Item under review: "K11P" . Reported abundance fitness?
RESULT: -0.034

QUERY: Item under review: "V24E" . Reported abundance fitness?
RESULT: 0.027

QUERY: Item under review: "P48K" . Reported abundance fitness?
RESULT: -0.334

QUERY: Item under review: "Q10T" . Reported abundance fitness?
RESULT: -0.058

QUERY: Item under review: "E29D" . Reported abundance fitness?
RESULT: -0.104

QUERY: Item under review: "I27H" . Reported abundance fitness?
RESULT: -0.908

QUERY: Item under review: "I17N" . Reported abundance fitness?
RESULT: -0.733

QUERY: Item under review: "Q44V" . Reported abundance fitness?
RESULT: -0.225

QUERY: Item under review: "G22H" . Reported abundance fitness?
RESULT: -0.581

QUERY: Item under review: "E29G" . Reported abundance fitness?
RESULT: -0.19

QUERY: Item under review: "W46I" . Reported abundance fitness?
RESULT: -0.299

QUERY: Item under review: "Y3V" . Reported abundance fitness?
RESULT: -0.073

QUERY: Item under review: "S33F" . Reported abundance fitness?
RESULT: -0.229

QUERY: Item under review: "E32N" . Reported abundance fitness?
RESULT: -0.078

QUERY: Item under review: "W36Q" . Reported abundance fitness?
RESULT: -0.71

QUERY: Item under review: "A49T" . Reported abundance fitness?
RESULT: -0.191

QUERY: Item under review: "G45P" . Reported abundance fitness?
RESULT: -1.19

QUERY: Item under review: "Q12P" . Reported abundance fitness?
RESULT: -0.276

QUERY: Item under review: "V24L" . Reported abundance fitness?
RESULT: -0.128

QUERY: Item under review: "L52K" . Reported abundance fitness?
RESULT: -0.647

QUERY: Item under review: "S33N" . Reported abundance fitness?
RESULT: -0.09

QUERY: Item under review: "T50Y" . Reported abundance fitness?
RESULT: -0.095

QUERY: Item under review: "V5T" . Reported abundance fitness?
RESULT: -0.309

QUERY: Item under review: "A7W" . Reported abundance fitness?
RESULT: -0.286

QUERY: Item under review: "W35E" . Reported abundance fitness?
RESULT: -0.173

QUERY: Item under review: "G22S" . Reported abundance fitness?
RESULT: -0.503

QUERY: Item under review: "E32Q" . Reported abundance fitness?
RESULT: 0.001

QUERY: Item under review: "W46T" . Reported abundance fitness?
RESULT: -0.437

QUERY: Item under review: "V38H" . Reported abundance fitness?
RESULT: -1.13

QUERY: Item under review: "E29P" . Reported abundance fitness?
RESULT: -0.974

QUERY: Item under review: "E29N" . Reported abundance fitness?
RESULT: 0.021

QUERY: Item under review: "E53G" . Reported abundance fitness?
RESULT: -0.008

QUERY: Item under review: "Q10E" . Reported abundance fitness?
RESULT: 0.125

QUERY: Item under review: "E43I" . Reported abundance fitness?
RESULT: -0.155

QUERY: Item under review: "E43D" . Reported abundance fitness?
RESULT: 0.087

QUERY: Item under review: "C51V" . Reported abundance fitness?
RESULT: -0.107

QUERY: Item under review: "G45A" . Reported abundance fitness?
RESULT: -0.604

QUERY: Item under review: "V47C" . Reported abundance fitness?
RESULT: 0.001

QUERY: Item under review: "E53S" . Reported abundance fitness?
RESULT: -0.05

QUERY: Item under review: "S39F" . Reported abundance fitness?
RESULT: -0.241

QUERY: Item under review: "G22E" . Reported abundance fitness?
RESULT: -0.673

QUERY: Item under review: "E16N" . Reported abundance fitness?
RESULT: -0.2

QUERY: Item under review: "C51W" . Reported abundance fitness?
RESULT: -0.596

QUERY: Item under review: "E43A" . Reported abundance fitness?
RESULT: -0.038

QUERY: Item under review: "E43F" . Reported abundance fitness?
RESULT: -0.265

Just for reference, the Human Domainome abundance scans (Beltran et al. 2025) is where these values come from.
